- Experiment description: Secretion counterscreen for inhibitors of the SERCaMP assay screened against the NCATS CANVASS Library (AID 1347390);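 further: light from luciferase secreted into medium read as a measure of general secretion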
- Measurement context: SH-SY5Y constitutive GLuc secretion, luminescence, 20 h; series mostly up to 76.6 µM
Records with an inconclusive call do not appear. The source made the active and inactive calls. The call rests on the fitted dose curve; in most records, active means well fitted inhibition curve with a large enough effect; inconclusive means small, poorly fitted or top-dose-only effect; inactive means no such curve, though single readings can be large or run the other way. Bridge positions count the residues as written; N and C are the ends. Square brackets hold non-standard residues; d marks the D form. Side chains are listed from the residue outwards. Peptide text beside a SMILES is read from it. * marks the point of attachment. Phg(4-OMe) = COc1ccc([C@H](N)C(=O)O)cc1; d(aIle) = CC[C@H](C)[C@@H](N)C(=O)O; d(aThr) = C[C@@H](O)[C@@H](N)C(=O)O; NMeF = CN[C@@H](Cc1ccccc1)C(=O)O; Isobutyryl = CC(C)C(=O)*
Form entry, call: pick from active, inactive

*Q* Name the outcome recorded for CO[C@H]1/C=C/CCCCC(=O)O[C@@H](/C(C)=C/[C@H](C)C(=O)C[C@H](O)CC2CC(=O)NC(=O)C2)[C@@H](C)C1 in the assay.
*A* active

*Q* Name the outcome recorded for CC[C@H](C)[C@H]1NC(=O)[C@@H](NC(=O)C(C)C)[C@@H](C)OC(=O)[C@H](COC(=O)CNC(C)=O)NC(=O)[C@@H]([C@@H](C)O)NC(=O)[C@H](Cc2ccccc2)N(C)C(=O)[C@H](c2ccc(OC)cc2)NC1=O (Isobutyryl-T[d(aIle)][Phg(4-OMe)][NMeF][d(aThr)]S([Gly-Ac]); ester 1-C) in the assay.
*A* inactive

*Q* Name the outcome recorded for C/C(=C\[C@H](C)C(=O)CCCC1CC(=O)NC(=O)C1)[C@@H]1OC(=O)/C=C/CC/C=C/[C@H](O)[C@@H](O)[C@@H]1C in the assay.
*A* active

*Q* Name the outcome recorded for COc1cc2c(c(O)c1O)C(=O)c1c(coc1C)C2=O in the assay.
*A* active

*Q* Name the outcome recorded for C/C(=C\[C@H](C)C(=O)C[C@H](O)CC1CC(=O)NC(=O)C1)[C@@H]1OC(=O)CCCC/C=C/C[C@@H](O)[C@@H]1C in the assay.
*A* active

*Q* Name the outcome recorded for COC(=O)[C@@]1(C)CCC[C@]2(C)c3cc(OC)ccc3CC[C@@H]12 in the assay.
*A* inactive
